System: human B1R receptor (CHO K1 cells stably transfected with the human B1R gene) (Homo sapiens, UniProt P46663)
Construct: expressed in transfected cells; host or cells: CHO K1 cells (Chinese hamster ovary), stably transfected
Sequence (P46663 whole entry): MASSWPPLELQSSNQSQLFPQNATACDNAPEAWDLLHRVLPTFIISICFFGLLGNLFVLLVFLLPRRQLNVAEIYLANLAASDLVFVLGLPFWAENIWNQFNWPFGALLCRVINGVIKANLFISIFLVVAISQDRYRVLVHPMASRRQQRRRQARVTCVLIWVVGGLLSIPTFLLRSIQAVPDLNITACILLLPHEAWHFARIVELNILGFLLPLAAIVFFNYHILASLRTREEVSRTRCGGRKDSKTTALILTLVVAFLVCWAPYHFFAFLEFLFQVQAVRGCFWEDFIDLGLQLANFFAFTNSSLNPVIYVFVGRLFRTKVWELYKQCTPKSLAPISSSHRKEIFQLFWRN
Run Description: Functional study on the bradykinin receptor 1 (B1R), Ca2+ fluorescence (Fluo-4) FLIPR/Novostar assay, hB1R cells
Format: cell-based
Condition Set: CHO-K1, read-out: % Inhibition (h-B1R) at 10 μM
Value Type: inhibition at 10 µM (%)

CN(C(=O)c1ccc2c(c1)C(NC(=O)c1c(Cl)cccc1C(F)(F)F)CCC2)C1CCN(c2ccncc2)CC1 (stereo not drawn) [CC_H-11] | 99
CN(C(=O)c1ccc2c(c1)C(NC(=O)c1cncnc1)CC2(C)C)C1CCN(c2ccncc2)CC1 (stereo not drawn) [CC_H-22] | 97
CN(C(=O)c1ccc2c(c1)CCC2NC(=O)CCC1CCCC1)C1CCN(c2ccncc2)CC1 (stereo not drawn) [CC_H-65] | 98
CC(C)(C(=O)NC1CCc2ccc(C(=O)NCCC3CCN(c4ccncc4)CC3)cc21)c1ccccc1Cl (stereo not drawn) [CC_H-103] | 89
CN(C(=O)c1ccc2c(c1)C(NC(=O)c1sccc1Cl)CCC2)C1CCN(c2ccncc2)CC1 (stereo not drawn) [CC_H-07] | 99
Cc1cc(N2CCC(N(C)C(=O)c3ccc4c(c3)C(NC(=O)C(C)(C)c3ccccc3Cl)CC4)CC2)cc(C)n1 (stereo not drawn) [CC_H-131] | 99
CN(C(=O)c1ccc2c(c1)C(NC(=O)c1cc(F)ccc1Cl)CCC2)C1CCN(c2ccncc2)CC1 (stereo not drawn) [CC_H-04] | 99
O=C(NCCC1CCN(c2ccncc2)CC1)c1ccc2c(c1)C(NS(=O)(=O)Cc1ccccc1C(F)(F)F)CC2 (stereo not drawn) [CC_H-128] | 99
Cc1cccc(C)c1C(=O)NC1CCc2ccc(C(=O)N(C)C3CCN(c4ccc5cnccc5c4)CC3)cc21 (stereo not drawn) [CC_H-133] | 90

---

System: human B1R receptor (CHO K1 cells stably transfected with the human B1R gene) (Homo sapiens, UniProt P46663)
Construct: expressed in transfected cells; host or cells: CHO K1 cells (Chinese hamster ovary), stably transfected
Run Description: Functional study on the bradykinin receptor 1 (B1R), Ca2+ fluorescence (Fluo-4) FLIPR/Novostar assay, hB1R cells
Type: cell-based
Condition Set: CHO-K1, read-out: % Inhibition (h-B1R) at 10 μM
Value Type: inhibition at 10 µM (%)

Cc1cc(N2CCC(N(C)C(=O)c3ccc4c(c3)C(NC(=O)c3c(Cl)cccc3C(F)(F)F)CC4)CC2)cc(C)n1 (stereo not shown) | 97
CN(C(=O)c1ccc2c(c1)C(NC(=O)C(C)(C)c1ccccc1Cl)CC2)C1CCN(c2ccc3cnccc3c2)CC1 (stereo not shown) | 92
Cc1cc(N2CCC(N(C)C(=O)c3ccc4c(c3)C(N(C)C(=O)CCC3CCCC3)CC4)CC2)cc(C)n1 (stereo not shown) | 100
CN(C(=O)c1ccc2c(c1)CCC2NC(=O)c1cc(F)ccc1Cl)C1CCN(c2ccncc2)CC1 (stereo not shown) | 100
CN(C(=O)c1ccc2c(c1)C(NC(=O)CCC1CCCC1)CC2(C)C)C1CCN(c2ccncc2)CC1 (stereo not shown) | 99
CN(C(=O)c1ccc2c(c1)CCC2NC(=O)c1sccc1Cl)C1CCN(c2ccncc2)CC1 (stereo not shown) | 100
CN(C(=O)c1ccc2c(c1)C(N(C)C(=O)c1ccccc1Cl)CC2)C1CCN(c2ccncc2)CC1 (stereo not shown) | 100
CN(C(=O)c1ccc2c(c1)CCC2NC(=O)c1ccccc1Cl)C1CCN(c2ccncc2)CC1 (stereo not shown) | 96
Cc1cc(N2CCC(N(C)C(=O)c3ccc4c(c3)C(NC(=O)c3cccc(Cl)c3Cl)CC4)CC2)cc(C)n1 (stereo not shown) | 100
CN(C(=O)c1ccc2c(c1)C(NC(=O)c1cc(F)ccc1Cl)CC2)C1CCN(c2ccc3cnccc3c2)CC1 (stereo not shown) | 100
CN(C(=O)NC1CCc2ccc(C(=O)N(C)C3CCN(c4ccc5cnccc5c4)CC3)cc21)c1ccccc1Cl (stereo not shown) | 100
O=C(NCCC1CCN(c2ccncc2)CC1)c1ccc2c(c1)C(NC(=O)c1cnccc1C(F)(F)F)CC2 (stereo not shown) | 93
CN(C(=O)c1ccc2c(c1)C(NS(=O)(=O)c1c(Cl)cccc1C(F)(F)F)CCO2)C1CCN(c2ccncc2)CC1 (stereo not shown) | 99
CN(C(=O)c1ccc2c(c1)CCC2NC(=O)C1CCCCC1)C1CCN(c2ccncc2)CC1 (stereo not shown) | 96
O=C(NCCC1CCN(c2ccncc2)CC1)c1ccc2c(c1)C(NC(=O)c1c(Cl)cccc1C(F)(F)F)CC2 (stereo not shown) | 100
CN(C(=O)c1ccc2c(c1)CCC2NC(=O)c1cccc(Cl)c1Cl)C1CCN(c2ccncc2)CC1 (stereo not shown) | 100
CN(C(=O)c1ccc2c(c1)C(NC(=O)c1cccc(Cl)c1Cl)CC2)C1CCN(c2ccc3cnccc3c2)CC1 (stereo not shown) | 99
Cc1cc(N2CCC(N(C)C(=O)c3ccc4c(c3)C(NC(=O)C3CCCCC3)CC4)CC2)cc(C)n1 (stereo not shown) | 100
CN(C(=O)c1ccc2c(c1)C(NC(=O)c1cnccc1C(F)(F)F)CC2(C)C)C1CCN(c2ccncc2)CC1 (stereo not shown) | 100
CN(C(=O)c1ccc2c(c1)C(NC(=O)CCC1CCCC1)CC2)C1CCN(c2ccc3cnccc3c2)CC1 (stereo not shown) | 100
Cc1cccc(C)c1C(=O)NC1CCc2ccc(C(=O)N(C)C3CCN(c4ccncc4)CC3)cc21 (stereo not shown) | 98
CN(C(=O)c1ccc2c(c1)C(NS(=O)(=O)Cc1ccccc1C(F)(F)F)CC2)C1CCN(c2ccncc2)CC1 (stereo not shown) | 100
